The entries below are paired with their reported TGI.
test system: CCRF-CEM leukemia; experiment: NCI tumour cell line growth inhibition, 48 h
Measured quantity: TGI

>>> df
                                   compound  assay_result
0  N#CS.N=C=S.N=C=S.[Cu+2].[NH2-].[NH2-].[NH2-].[NH2-].c1ccc2ncccc2c1       57.5 µM
1  CCC1C(=O)C(O)[C@H]2[C@@H]3C(O)CC4=CC(=O)CC[C@]4(C)[C@H]3CC[C@]12C (stereo partly drawn)       > 50 µM
2   O=C1c2ccccc2-c2c1c1c(O)cccc1n2-c1ccccc1      > 100 µM

* * *

system: 786-0 renal; experiment: NCI tumour cell line growth inhibition, 48 h
Below: a set of entries, each annotated with reported TGI.
Measured quantity: TGI (µM)

>>> print(df.to_string())
                                   compound       target  modifier  assay_result
0  Cc1nc2c(o1)C(=O)c1ccccc1C2=Nc1ccc(N2CCOCC2)cc1  786-0 renal         =            61
1  CCOC(=O)C(C)(C)C(O)C(C)C (stereo not given)  786-0 renal         >           100
2  COc1ccc2c(ccc3c(COC(=O)NC(C)C)c(COC(=O)NC(C)C)n(C)c32)c1  786-0 renal         =          20.8
3  CCOc1ccc(NC(=O)C2=C(C)NC(C)=C(C(=O)Nc3ccc(OCC)cc3)C2c2ccccc2)cc1  786-0 renal         >           100
4       Cn1c2c3ccc(Cl)cc3nc-2c(Cl)c2ccccc21  786-0 renal         =          33.9

* * *

system: SF-268 CNS; assay: NCI tumour cell line growth inhibition, 48 h
Measured quantity: TGI

>>> print(df.to_string())
                                   compound  measured_quantity  assay_result
0  C/C(=C\COc1c2c(cc3c1CCO3)OC1(C=C2)OC(CC/C(C)=C/COc2c3ccoc3cc3oc(=O)ccc23)C(C)(C)O1)CCC(O)C(C)(C)O (stereo not given)                TGI      > 100 µM
1  O=C(NCc1ccncc1)C12CC3CC(C1)CC(c1ccc(Cl)cc1)(C3)C2                TGI       29.5 µM
2  CC(C)(C)OC(=O)NC1CCC(C(C)(C)C)CC1 (stereo not given)                TGI      > 100 µM
3  COc1ccc(OC(C(=O)O)c2ccccc2)c2c1CCCC2=O (stereo not given)                TGI      > 100 µM
4           Fc1cccc2c1cc1ccc3cccc4ccc2c1c34                TGI      > 100 µM
5          Cc1ccc2c(=O)cc(-c3ccsc3)[nH]c2n1                TGI      > 100 µM
6  COc1cc(-c2nn(-c3cccc(NC(=O)c4ccc(N5CCOCC5)c(C(F)(F)F)c4)c3)cc2-c2ccncc2)ccc1Cl                TGI     > 48.1 µM
7  Cc1ccc(C)c2c1CC(Cc1ccccc1C(=O)O)C2=O (stereo not given)                TGI      > 100 µM
8   O=C1c2ccccc2-c2c1c1c(O)cccc1n2-c1ccccc1                TGI      > 100 µM
9  CC(O)C1(CNc2cc(Cl)nc(N)n2)CC(CCc2ccccc2)C1 (stereo not given)                TGI       29.4 µM
